Test system: VchCAST RNA-guided transposition machinery (E. coli BL21(DE3) host, lacZ target)
Assay: relative integration efficiency (T-RL orientation) vs wild-type transposon end (log2 (normalized fold change)); transposon end mutated: right end (5 bp flank + 75 bp right end); higher = more efficient transposition
READOUT: relative integration efficiency (log2)
Give bare numbers.

ACATTTGTTGATACAACCATCCAATGATAATTACACCCATAAATTGATAATTATCACACCCATAAATTGATATTGCCTCTGATCATAGTCAGACCAACATTGCTACGACCCGTATTCGCACCGACAC
-1.36

Give relative integration efficiency (log2) for each listed item.
1. ACATTTGTTGATACAACCATAAAATGATAATTAATAATTATTTATAATCAGCAACTTAACCACCCATAAATTGATAATTATCAACAAACGCCCGGTCGCGGTACTCTGATCATAGTCAGACCAACAT
2. ACATTTGTTGATACCACCATAAAATGGTAATTCCACCCATAAATTGATAATTATCACACCCAATTTAACTATAACGCTCTGATCATAGTCAGACCAACATTGCTACGACCCGTATTCGCACCGACAC
3. ACATTTCTTCATACAACCATAAAATGATAATTACACCCATAAATGGATCATTATCACACCCAATTTAACTATAACGCTCTGATCATAGTCAGACCAACATTGCTACGACCCGTATTCGCACCGACAC
4. ACATTTGTTCATACAACCATAAAATGATAATTACCACCCCTACATTGATAATTATCACACCCATTTAACTATAACGCTCTGATCATAGTCAGACCAACATTGCTACGACCCGTATTCGCACCGACAC

[-3.11, -1.38, -4.65, -4.94]

====

Test system: VchCAST RNA-guided transposition machinery (E. coli BL21(DE3) host, lacZ target)
Assay: relative integration efficiency (T-RL orientation) vs wild-type transposon end (log2 (normalized fold change)); transposon end mutated: right end (5 bp flank + 75 bp right end); higher = more efficient transposition
Consider the following sequences; for each one, report its relative integration efficiency (log2).
Numbers only.

ACATTTGTTGATACAACCATAAAATGATAATTACACGGATAAATTGATAATTATCACACCCATAAATTGATATTGCCTCTGATCATAGTCAGACCAACATTGCTACGACCCGTATTCGCACCGACAC
-0.265
ACATTTGTTGATACAACCATAAAATGATAATTACACCCATAAATTGATAATTATCACACCCATAAATTGATATTGCCTCTGATCAGGCAGTGAGCGCAACGCAATTTAGTCAGACCAGCACCGACAC
-0.283
ACATTTGTTGATACAACCATAAAATGATAATTACTCTGATCATAGTCAGACCAACATTCACCCATAAATTGATAATTATCACACCCATAAATTGATATTGCGCTACGACCCGTATTCGCACCGACAC
-4.53
ACATTTTGGTATACAACCATAAAATGATAATTACACCCATAAATTGATAATTATCACACCCATAAATTGATATTGCCTCTGATCATAGTCAGACCAACATTGCTACGACCCGTATTCGCACCGACAC
-5.96

What does the data say about its relative integration efficiency (log2)? Entry: ACATTTGTTGATACACCCATAAATTGATAATTACAACCATAAAGTGATATTTATCACAACCATAAGTTGATATTTTCTCTGATCATAGTCAGACCAACATTGCTACGACCCGTATTCGCACCGACAC
-0.418

====

System: VchCAST RNA-guided transposition machinery (E. coli BL21(DE3) host, lacZ target)
Assay: relative integration efficiency (T-RL orientation) vs wild-type transposon end (log2 (normalized fold change)); transposon end mutated: right end (5 bp flank + 75 bp right end); higher = more efficient transposition
Param threshold (-2) applies to relative integration efficiency (log2); output rule met when value >= threshold, rule not met when value < threshold.

ACATTTGTTGATACAACCATAAAATGATAATTACACCCATCAATTGATAATTATCCCACCCAATTTAACTATAACGCTCTGATCATAGTCAGACCAACATTGCTACGACCCGTATTCGCACCGACAC
rule met
ACATTTGTTGATACAACCATAAAATGATAATTAATAATTATTTACACCCATAAATTGATAATTATCAACAAACGCCCGGTCGCGGTACTCTGATCATAGTCAGACCAACATTGCTACGACCCGTATT
rule not met
ACATTTGTGGATACAACCATAAAATGATAATTACACCCATAAATGGATAATTATCACACCCAATTTAACTATAACGCTCTGATCATAGTCAGACCAACATTGCTACGACCCGTATTCGCACCGACAC
rule met
ACATTTGTTGATACAACCATAAAATGATAATTAATAATTATTTATAATCAGCAACTTCACCCATAAATTGATAATTATCACACCCATAAATTGATATTGCCTCTGATCATAGTCAGACCAACATTGC
rule not met
ACATTTGTTGATACAACCATAAAATGATAATTACAACCATATATTGATATCTCTCACAACCATAAAATGATAATTACTCTGATCATAGTCAGACCAACATTGCTACGACCCGTATTCGCACCGACAC
rule met
ACATTTGGGGATACAACCATAAAATGATAATTACACCCATAAATTGATAATTATCACACCCATAAATTGATATTGCCTCTGATCATAGTCAGACCAACATTGCTACGACCCGTATTCGCACCGACAC
rule not met

Check if relative integration efficiency (log2) >= -2 (inclusive). Item: ACATTTGTTGATACAACCATAAAATGATAATTACACCCATAAATTGATAATTATCACACCCATAAATTGATATTGCCTCTCAGACCACATAGCTGCCATGTCCTGATCGGACGGACCGCACCGACAC
rule met

In plain terms: is recorded relative integration efficiency (log2) at least -2 for ACATTGGTCGATACAACCATAAAATGATAATTACACCCATAAATGGATCATTATCACACCCAATTTAACTATAACGCTCTGATCATAGTCAGACCAACATTGCTACGACCCGTATTCGCACCGACAC ?
rule not met

Does relative integration efficiency (log2) meet or surpass -2 for ACATTTGTTGATACAACCATAAAATGCGAATTACACCCATAAATTGATAATTATCACACCCATAAATTGATATTGCCTCTGATCATAGTCAGACCAACATTGCTACGACCCGTATTCGCACCGACAC ?
rule met

====

Answer each item with its documented relative integration efficiency (log2).
Tested on: VchCAST RNA-guided transposition machinery (E. coli BL21(DE3) host, lacZ target)
Assay: relative integration efficiency (T-RL orientation) vs wild-type transposon end (log2 (normalized fold change)); transposon end mutated: left end; higher = more efficient transposition
Give bare numbers.

AATGTTGTTGATGCAACCATAAAGTGATATTTACTAGGATTCATGTCAACGTGCAAGCTTAGTTCGACAACCATATATTGATATCTCACAAAACAACCATAAGTTGATATTTTTGTGAATCGAGTATTTCAGCAAAACTACTGCAGTAAGAA
-5.16

Then there is this sequence:
Would you mind telling me what relative integration efficiency (log2) value was observed for AATGTTGTTGATGCAACCATAAAGTGATATTTAATAATTATTTATAATCAGCAACTCAACCATATATTGATATCTCTAACCACAAAAACAAAACAACCATAAGTTGATATTTTTGTGAATCGAGTATTTCAGCAAAACTACTGCAGTAAGAA ?
-4.84

====

Tested on: VchCAST RNA-guided transposition machinery (E. coli BL21(DE3) host, lacZ target)
Assay: relative integration efficiency (T-RL orientation) vs wild-type transposon end (log2 (normalized fold change)); transposon end mutated: right end (5 bp flank + 75 bp right end); higher = more efficient transposition
Hi, to clarify the labels: 1 (yes) covers relative integration efficiency (log2) from -3 upward, 0 (no) covers anything below -3.

Study these solved cases before continuing.
ACATTTGTTGATACAAAACGAAAATGATAATTACACCCATAAATTGATAATTATCACACCCATAAATTGATATTGCCTCTGATCATAGTCAGACCAACATTGCTACGACCCGTATTCGCACCGACAC
0 (no)
ACATTTGTTGATACAACCATTAAATGATAATTACACCCAAAAATTGATAATTATCACACCCAATTTAACTATAACGCTCTGATCATAGTCAGACCAACATTGCTACGACCCGTATTCGCACCGACAC
1 (yes)
ACATTTGTTGATACAACCATAAGTTGATATTTTCAACCATATATTGATATCTCTCACAACCATAAAGTGATATTTACTCTGATCATAGTCAGACCAACATTGCTACGACCCGTATTCGCACCGACAC
1 (yes)
ACATTTGTTGATACAACCATAAGTTGATATTTTCAACCATAAGTTGATATTTTTCACAACCATATATTGATATCTCCTCTGATCATAGTCAGACCAACATTGCTACGACCCGTATTCGCACCGACAC
1 (yes)
ACATTTGTTGATACAACCATATTTAGATAATTACACCCATATTAAGATAATTATCACACCCATATTAAGATATTGCCTCTGATCATAGTCAGACCAACATTGCTACGACCCGTATTCGCACCGACAC
1 (yes)

Please indicate if the recorded relative integration efficiency (log2) for ACATTTGTTGATACAACCATAAAATCATAATTACCCCCATAAATTGATAATTATCACACCCCATTTAACTATAACGCTCTGATCATAGTCAGACCAACATTGCTACGACCCGTATTCGCACCGACAC meets or exceeds -3.
0 (no)

# bool: relative integration efficiency (log2) of ACATTTGTTGATACAACCATAAAGTGATATTTACAACCATAAAGTGATATTTATCAGTGGGTATTTAACTATAACGCTCTGATCATAGTCAGACCAACATTGCTACGACCCGTATTCGCACCGACAC >= -3
1 (yes)

Kindly determine if relative integration efficiency (log2) recorded for ACATTTGTTGATACAACCATACCCGTATAATTACACCCATACCGGTATAATTATCACACCCATACCGGTATATTGCCTCTGATCATAGTCAGACCAACATTGCTACGACCCGTATTCGCACCGACAC is above or exactly -3.
0 (no)

Please tell me: is the sequence ACATTTGTTGATACAACCATAAAATGATAATTACACCCATAAAGGTCGCCGGCGACACAAACGCCCGGTCGCGGTAAGAGGATCATAGTCAGACCAACATTGCTACGACCCGTATTCGCACCGACAC at or over -3 in terms of relative integration efficiency (log2)?
1 (yes)
